Protocol: RP, Thermo Scientific Acclaim RSLC 120 C18, 100 × 2.1 mm, 2.2 µm, 30 °C, 0.2 mL/min, estimated dead time 1.1 min; A: 90% water + 10% methanol + 0.01% formic acid + 5 mM ammonium formate, pH 3.61; B: methanol + 0.01% formic acid + 5 mM ammonium formate, pH 3.61; gradient (min/%B) 0/1 1/1 2/39 13/99.9 15/99.9 15.1/1 20.1/1
Details: stereoisomer not certain
Reported Metric: LC retention time (min)

# annotated cases, reported LC retention time shown
Compound	LC retention time, min
O=C(Nc1cccc(Cl)c1)OCC#CCCl	9.74
c1ccc(CN(CCN2CCCC2)c2ccccc2)cc1	7.19
c1ccc(Nc2ccccc2)cc1	10.1
CC(=O)N1CCN(c2ccc(OCC3COC(Cn4ccnc4)(c4ccc(Cl)cc4Cl)O3)cc2)CC1 (configuration not stated)	9.4
CC(C)CC(N(C)C)C1(c2ccc(Cl)cc2)CCC1 (configuration not stated)	8.66

(A) CC(C)N(C(=O)C(=O)O)c1ccc(F)cc1
(B) CC(O)(C(N)=O)c1ccccc1 (configuration not stated)
[in] Response body: label of entry with the larger LC retention time; valid values A , B . Mark your answer with the label of the selected entry.
[out] B

====

Protocol: RP, Thermo Scientific Acclaim RSLC 120 C18, 100 × 2.1 mm, 2.2 µm, 30 °C, 0.2 mL/min, estimated dead time 1.1 min; A: 90% water + 10% methanol + 0.01% formic acid + 5 mM ammonium formate, pH 3.61; B: methanol + 0.01% formic acid + 5 mM ammonium formate, pH 3.61; gradient (min/%B) 0/1 1/1 2/39 13/99.9 15/99.9 15.1/1 20.1/1
Details: stereoisomer not certain
Reported Metric: LC retention time (min)

# annotated cases, reported LC retention time shown
Compound	Observed Result
Cc1cc2c(s1)Nc1ccccc1N=C2N1CCN(C)CC1 [Olanzapine]	4.99
Cn1c(-c2ccccc2)cc(-c2ccccc2)[n+]1C [Difenzoquat (Ion 1+)]	5.21
CCOC(=O)C(CCc1ccccc1)NC1CCCN2CCCC(C(=O)O)N2C1=O (centres undefined) [Cilazapril]	7.94
CCCN(CCC)C(=O)SCC [EPTC]	10.7
CCC(C)C1OC2(CCC1C)CC1CC(CC=C(C)C(OC3CC(OC)C(OC4CC(OC)C(O)C(C)O4)C(C)O3)C(C)C=CC=C3COC4C(O)C(C)=CC(C(=O)O1)C34O)O2 (centres undefined) [Ivermectin B1a]	14.4
CS(=O)(=O)c1ccc(C(=O)C2C(=O)CCCC2=O)c(Cl)c1 [Sulcotrione]	5
CNC(C)C(O)c1ccc(O)cc1 (centres undefined) [Synphrine-Methyl]	2.05
COC(=O)C(NC(=O)c1nn(Cc2ccc(F)cc2)c2ccccc12)C(C)C (centres undefined) [FUB-AMB]	10.8
CCCCCCn1cc(C(=O)c2cccc3ccccc23)c2ccccc21 [JWH-019]	12.9
CCCCCn1cc(C(=O)c2ccccc2OC)c2ccccc21 [RCS-4-ortho]	11.2

(1) O=C1NC(=O)C2CC=CCC12 (stereo not drawn) [Tetrahydrophthalimide (cis-) (1.2.3.6-)]
(2) COc1cc(C=C2CCCC(=Cc3ccc(O)c(OC)c3)C2=O)ccc1O [Cyclovalone]
(3) CNCC(O)c1cccc(O)c1 (stereo not drawn) [Phenylephrine (broad peak)]
[in] Arrange these compounds by their LC retention time, starting with the largest number. To answer, write out the labels according to the requested order.
[out] 2, 1, 3
(2: 9.59 min, 1: 4.37 min, 3: 1.93 min)

====

Protocol: RP, Thermo Scientific Acclaim RSLC 120 C18, 100 × 2.1 mm, 2.2 µm, 30 °C, 0.2 mL/min, estimated dead time 1.1 min; A: 90% water + 10% methanol + 0.01% formic acid + 5 mM ammonium formate, pH 3.61; B: methanol + 0.01% formic acid + 5 mM ammonium formate, pH 3.61; gradient (min/%B) 0/1 1/1 2/39 13/99.9 15/99.9 15.1/1 20.1/1
Details: stereoisomer not certain
Reported Metric: LC retention time (min)

# annotated cases, reported LC retention time shown
Compound	Result Units	Observed Result
CC(C)C(O)(C(=O)OCC1=CCN2CCC(O)C12)C(C)O (centres undefined) [Lycopsamine]	min	3.65
CCCCCCCCCCCC[N+](C)(C)Cc1ccccc1 [Benzododecinium (Benzyl-dimethyl-dodecylammonium)]	min	11.2
COP(=S)(OC)Oc1cc(Cl)c(Cl)cc1Cl [Fenclofos.Ronnel]	min	12.5
CCCc1nn(C)c2c(=O)[nH]c(-c3cc(C(=O)CN4CCN(CC)C(=O)C4=O)ccc3OCC)nc12 [Dioxohongdenafil]	min	8.18
CC(Cc1ccccc1)NCCn1cnc2c1c(=O)n(C)c(=O)n2C (centres undefined) [Fenethylline]	min	5.06

(a) CNC1CCC(c2ccc(Cl)c(Cl)c2)c2ccccc21 (centres undefined) [Sertraline]
(b) CC(=O)Nc1ccc(S(=O)(=O)Nc2ncccn2)cc1 [Sulfadiazine-N4-Acetyl]
[in] Response body: label of entry with the larger LC retention time; valid values a , b . Mark your answer with the label of the selected entry.
[out] a

(A) CCCCN(C)C(=O)Nc1ccc(Cl)c(Cl)c1 [Neburon]
(B) O=C(NC1CCN(CCc2c[nH]c3ccccc23)CC1)c1ccccc1 [Indoramin]
[in] Response body: label of entry with the larger LC retention time; valid values A , B . Mark your answer with the label of the selected entry.
[out] A
(A: 10.7 min, B: 5.37 min)

====

Protocol: RP, Thermo Scientific Acclaim RSLC 120 C18, 100 × 2.1 mm, 2.2 µm, 30 °C, 0.2 mL/min, estimated dead time 1.1 min; A: 90% water + 10% methanol + 0.01% formic acid + 5 mM ammonium formate, pH 3.61; B: methanol + 0.01% formic acid + 5 mM ammonium formate, pH 3.61; gradient (min/%B) 0/1 1/1 2/39 13/99.9 15/99.9 15.1/1 20.1/1
Details: stereoisomer not certain
Reported Metric: LC retention time (min)

# annotated cases, reported LC retention time shown
Compound	Result Units	LC retention time
Clc1ccccc1-c1nnc(-c2ccccc2Cl)nn1	min	11.5
CC1CC2C3CCC4=CC(=O)C=CC4(C)C3(F)C(O)CC2(C)C1(O)C(=O)CO (centres undefined)	min	8.38
COC(=O)C1=C(C)NC(C)=C(C(=O)OCC(C)C)C1c1ccccc1[N+](=O)[O-] (centres undefined)	min	10.6
Cc1cc(C)nc(NC(=O)NS(=O)(=O)c2ccccc2C(=O)OC2COC2)n1	min	6.52
CCOP(=S)(OCC)Oc1ccc(Cl)cc1Cl	min	12.6
COP(=S)(OC)Oc1ccc(SC)c(C)c1	min	11
Nc1c([N+](=O)[O-])ccc(Oc2ccccc2)c1Cl	min	10.9
CCOC(=O)C1(c2ccccc2)CCN(CCC(C#N)(c2ccccc2)c2ccccc2)CC1 [Diphenoxylate]	min	10.4

(1) Cn1c(=O)c2c(ncn2C)n(C)c1=O
(2) COc1cc(C(=O)OCCCN(C)CCN(C)CCCOC(=O)c2cc(OC)c(OC)c(OC)c2)cc(OC)c1OC [Hexobendine]
[in] Response body: label of entry with the larger LC retention time; valid values 1 , 2 . Mark your answer with the label of the selected entry.
[out] 2
(2: 7.54 min, 1: 4.23 min)

(P) C#CC[N+](C)([O-])C(C)Cc1ccccc1 (centres undefined) [Deprenyl-N-oxide]
(Q) CCC1OC(=O)CC(O)C(C)C(OC2OC(C)C(OC3CC(C)(O)C(O)C(C)O3)C(N(C)C)C2O)C(CC=O)CC(C)C(=O)C=CC(C)=CC1COC1OC(C)C(O)C(OC)C1OC (centres undefined)
(R) NC(N)=Nc1nc(CSCCC(N)=NS(N)(=O)=O)cs1
[in] Arrange these compounds by their LC retention time, starting with the largest number. To answer, write out the labels according to the requested order.
[out] Q, P, R
(Q: 7.88 min, P: 5.33 min, R: 3.24 min)

(P) CNCC(c1ccc(OC)cc1)C1(O)CCCCC1 (centres undefined)
(Q) COCCCOc1cc(CC(CC(N)C(O)CC(C(=O)NCC(C)(C)C(N)=O)C(C)C)C(C)C)ccc1OC (centres undefined)
[in] Response body: label of entry with the larger LC retention time; valid values P , Q . Mark your answer with the label of the selected entry.
[out] Q

(1) CC(C)Nc1nc(Cl)nc(NC2CC2)n1
(2) NC(N)=NCC1COc2ccccc2O1 (centres undefined)
[in] Response body: label of entry with the larger LC retention time; valid values 1 , 2 . Mark your answer with the label of the selected entry.
[out] 1
(1: 8.22 min, 2: 4.57 min)

====

Protocol: RP, Thermo Scientific Acclaim RSLC 120 C18, 100 × 2.1 mm, 2.2 µm, 30 °C, 0.2 mL/min, estimated dead time 1.1 min; A: 90% water + 10% methanol + 0.01% formic acid + 5 mM ammonium formate, pH 3.61; B: methanol + 0.01% formic acid + 5 mM ammonium formate, pH 3.61; gradient (min/%B) 0/1 1/1 2/39 13/99.9 15/99.9 15.1/1 20.1/1
Details: stereoisomer not certain
Reported Metric: LC retention time (min)

Molecule	LC retention time, min
CC[N+]1(C)C2CC(OC(=O)C(CO)c3ccccc3)CC1C1OC12 (stereo unspecified)	3.87
NC(=O)c1ccccc1C(=O)O	2.87
COc1ncnc(NS(=O)(=O)c2ccc(N)cc2)c1OC	4.75

(I) COC(=O)C(C)Oc1ccc(Cl)cc1Cl (stereo unspecified)
(II) CC1=C(C(=O)O)N2C(=O)C(NC(=O)C(N)c3ccc(O)cc3)C2SC1 (stereo unspecified)
[in] // compare: I vs II , metric LC retention time, want the smaller Mark your answer with the label of the selected entry.
[out] II
